System under test: Arginase-2, mitochondrial (Homo sapiens)
Sequence (whole entry): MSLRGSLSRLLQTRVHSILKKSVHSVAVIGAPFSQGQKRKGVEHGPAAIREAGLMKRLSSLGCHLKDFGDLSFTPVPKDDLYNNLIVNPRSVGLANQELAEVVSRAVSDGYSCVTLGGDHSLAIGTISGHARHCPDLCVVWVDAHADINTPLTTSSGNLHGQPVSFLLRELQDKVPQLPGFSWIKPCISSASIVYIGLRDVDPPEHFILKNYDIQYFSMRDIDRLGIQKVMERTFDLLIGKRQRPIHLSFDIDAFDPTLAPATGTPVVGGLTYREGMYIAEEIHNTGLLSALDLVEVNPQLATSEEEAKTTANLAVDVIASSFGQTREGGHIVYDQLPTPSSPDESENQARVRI
Test description: in vitro enzyme assay to detect the production of urea directly proportional to the activity of Arginase II; also: in the data most compounds retested in dose-response had high values
Format: functional
Design: scale not given: direction of the effect not stated beside the values
Measurement setup: 33.3 µM
Entries and their Percent Effect values follow.
Give the value, in units of %, as a plain number.

Completed entries (count: 6):
- O=C(Cc1ccc2c(c1)CCC2)NCCNc1ncccn1: 3.96
- CN(C)C(=O)[C@H]1C[C@@H]2CN(S(=O)(=O)Cc3ccccc3)C[C@H]1O2: 3.96
- CC(=O)N1CCCC1c1ccc(-c2c(C)noc2C)cn1 (centres undefined): 6.26
- O=C(Cc1cccc(F)c1)NCCNCc1ccc2c(c1)CCO2: -1.42
- CC(C)c1n[nH]c(C(=O)Nc2cc[nH]n2)c1Br: -3.8
- CC(NC1CCN(CCS(C)(=O)=O)CC1)c1ccc(Cl)cc1 (centres undefined): -0.476

Lookup: Give the measured Percent Effect of CN(C)c1ncccc1CNC(=O)N1CCCC1CN1CCCCC1 (centres undefined) .
Found: -0.356

Lookup: Request: CCc1n[nH]c(C2CN(C(=O)c3csnn3)CCO2)n1 (centres undefined)
Found: -5.26

====

Species on record: Homo sapiens
Test description: To identify inhibition of the IFN signalling (Jak-Stat) pathway via expression of an eGFP reporter gene under the control of an IFN-stimulated response element (ISRE) containing MxA promoter.
Format: functional
Design: scale not given: direction of the effect not stated beside the values
Measurement setup: 30 µM
Entries and their Percent Effect values follow.
Give the value, in units of %, as a plain number.

Completed entries (count: 10):
- COc1cccc(CC(=O)N2CCc3ncnc(NC(C)C)c3CC2)c1: 12.2
- Cn1cc(N2CCC(NC(=O)c3c(F)cccc3F)C2=O)cn1 (stereo unspecified): -14.2
- O=C(Nc1nccs1)N1CCCC(N2CCNC2=O)C1 (stereo unspecified): 2.14
- Cc1cc(C[S+]([O-])CC(=O)NCC(C)C)no1 (stereo unspecified): -13.6
- Cc1cnn(CC2CN(Cc3cccc(OCC(N)=O)c3)CCO2)c1 (stereo unspecified): 23.4
- Oc1nc(N2CCOCC2)nc2c1CCN(Cc1cccnc1)CC2: 3.87
- O=C(C1CCN(c2snc3ccccc23)CC1)N1CCCCCC1: 59.6
- COCC(=O)N1CCCn2c(CN3CCCCC3)nnc2C1: 24
- CS(=O)(=O)N1CC[C@H]2[C@H](C[C@@H](Cn3cncn3)N2CC2CC2)C1: -4
- CN(Cc1ccccn1)C(=O)[C@]12COC[C@H]1CN(Cc1cnn(C)c1)C2: -7.69

Lookup: Give the measured Percent Effect of `CC(C)CN1CCCn2nc(CNC(=O)CCCc3cn[nH]c3)cc2C1` .
Found: 0.658
